# System: SMMC-7721
# procedure_text: Antiproliferative activity against human SMMC7721 cells after 24 hrs by CCK-8 assay
# Format: functional, cell-based
# protocol_conditions: SMMC-7721, 24 h
readout_label: IC50 (µM)
Please give a number only; it is taken to be in µM.

# compound C=C1C(=O)O[C@@H]2C3=C(C)[C@@H](OC(=O)c4ccc(C(C)(C)C)cc4)CC3[C@](C)(OC(C)=O)CC[C@@H]12 (stereo not given in full) ; its IC50 = 9.37

Given item C=C1C(=O)O[C@@H]2C3=C(C)[C@@H](OC(=O)c4ccc(C)cc4)CC3[C@](C)(OC(C)=O)CC[C@@H]12 (stereo not given in full) , the value recorded as its IC50 is 6.49

Measured IC50, C=C1C(=O)O[C@@H]2C3=C(C)[C@@H](OC(=O)c4ccc(C#N)cc4)CC3[C@](C)(OC(C)=O)CC[C@@H]12 (stereo not given in full) : 6.7

IC50 reading for C=C1C(=O)O[C@@H]2C3=C(C)[C@@H](OC(=O)c4ccc(Br)cc4)CC3[C@](C)(OC(C)=O)CC[C@@H]12 (stereo not given in full) : 6.54

GET /value?item= C=C1C(=O)O[C@@H]2C3=C(C)[C@@H](OC(=O)c4ccc(CCCC)cc4)CC3[C@](C)(OC(C)=O)CC[C@@H]12 (stereo not given in full) &field=IC50 returns 7.46

IC50 measured on C=C1C(=O)O[C@@H]2C3=C(C)[C@@H](OC(=O)/C=C/c4ccccc4)CC3[C@](C)(OC(C)=O)CC[C@@H]12 (stereo not given in full) = 6.43

Measured IC50 of C=C1C(=O)O[C@@H]2C3=C(C)[C@@H](OC(=O)/C=C/c4ccc(OC)cc4)CC3[C@](C)(OC(C)=O)CC[C@@H]12 (stereo not given in full) : 5.41

Quick note, IC50 for C=C1C(=O)O[C@@H]2C3=C(C)[C@@H](OC(=O)c4ccc(CCC)cc4)CC3[C@](C)(OC(C)=O)CC[C@@H]12 (stereo not given in full) landed at 6.52

Noted for C=C1C(=O)O[C@@H]2C3=C(C)[C@@H](OC(=O)c4ccc(OC)cc4)CC3[C@](C)(OC(C)=O)CC[C@@H]12 (stereo not given in full) : its IC50 reads 8.93

Recorded IC50 (compound C=C1C(=O)O[C@@H]2C3=C(C)[C@@H](OC(=O)c4ccc(F)cc4)CC3[C@](C)(OC(C)=O)CC[C@@H]12 (stereo not given in full) ): 4.97

// C=C1C(=O)O[C@@H]2C3=C(C)[C@@H](OC(=O)c4ccc(C(F)(F)F)cc4)CC3[C@](C)(OC(C)=O)CC[C@@H]12 (stereo not given in full) : IC50 value = 5.49

Consider C=C1C(=O)O[C@@H]2C3=C(C)[C@@H](OC(=O)c4ccc(Cl)cc4)CC3[C@](C)(OC(C)=O)CC[C@@H]12 (stereo not given in full) . Its measured IC50 is 4.24

IC50 in this record for C=C1C(=O)O[C@@H]2C3=C(C)[C@@H](OC(=O)/C=C/c4ccc(F)cc4)CC3[C@](C)(OC(C)=O)CC[C@@H]12 (stereo not given in full) : 5.8

Entry under test: C=C1C(=O)O[C@@H]2C3=C(C)[C@@H](OC(=O)c4ccc(I)cc4)CC3[C@](C)(OC(C)=O)CC[C@@H]12 (stereo not given in full) . Its IC50 was 4.18

IC50 recorded for this compound, C=C1C(=O)O[C@@H]2C3=C(C)[C@@H](OC(=O)c4ccccc4)CC3[C@](C)(OC(C)=O)CC[C@@H]12 (stereo not given in full) , is 5.99

Hey, just so you know, these numbers are from ChEMBL document CHEMBL4196055.
